assay_comment: physchem
recorded_conditions: pH 7, water
assay_readout: solubility (µg/mL)
Just the number please, in µg/mL, no unit attached.

May I ask what solubility has been recorded for `CC(C)C[C@H](NC(=O)[C@H](CCc1ccccc1)NC(=O)CN1CCOCC1)C(=O)N[C@@H](Cc1ccccc1)C(=O)N[C@@H](CC(C)C)C(=O)[C@@]1(C)CO1` ?
2

The reported numbers originate from patent US20250345384A1.
